System: RS4-11;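 note: growth inhibition of RS4-11 cells, read out by a cell viability assay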
Protocol: cells
Type: functional, cell-based
Measurement context: Homo sapiens
Description: SANGER: Inhibition of human RS4-11 cell growth in a cell viability assay.
Property label: IC50 (µM)
Note: unit µM is implicit; provide only the numeric part.

Some molecules with recorded IC50:
Molecule: COc1cc(C)c(Sc2cnc(NC(=O)c3ccc(CNC(C)C(C)(C)C)cc3)s2)cc1C(=O)N1CCN(C(C)=O)CC1 (configuration not stated)
Unit: µM
IC50: 5.79
--
Molecule: Cn1c(=O)n(-c2ccc(C(C)(C)C#N)cc2)c2c3cc(-c4cnc5ccccc5c4)ccc3ncc21
Unit: µM
IC50: 0.0269
--
Molecule: CC[C@]1(O)C[C@@H]2CN(CCc3c([nH]c4ccccc34)[C@@](C(=O)OC)(c3cc4c(cc3OC)N(C)[C@H]3[C@@](O)(C(=O)OC)[C@H](OC(C)=O)[C@]5(CC)C=CCN6CC[C@]43[C@@H]65)C2)C1
Unit: µM
IC50: 0.00451
--
Molecule: CCCS(=O)(=O)Nc1ccc(F)c(C(=O)c2c[nH]c3ncc(Cl)cc23)c1F
Unit: µM
IC50: 9.6

Lab note: next molecule to report on.
Quickly give me recorded IC50 for CCNc1cc(N[C@H]2CC[C@@H](O)CC2)nc(Nc2ccc3c(ccn3Cc3ccccc3)c2)n1
3.74

====

Test system: SCH
Protocol: cells
Format: functional, cell-based
Measurement context: Homo sapiens
Description: SANGER: Inhibition of human SCH cell growth in a cell viability assay.
pIC50: −log10 of the molar value.
molecules and their reported pIC50

Some molecules with recorded pIC50:
Molecule: CC(=O)c1c(C)c2cnc(Nc3ccc(N4CCNCC4)cn3)nc2n(C2CCCC2)c1=O [PALBOCICLIB]
Target or system: SCH
Result: < 5.40
--
Molecule: CO[C@@]12[C@H](COC(N)=O)C3=C(C(=O)C(C)=C(N)C3=O)N1C[C@@H]1N[C@@H]12 [MITOMYCIN]
Target or system: SCH;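 note: growth inhibition of human SCH cells, read out in a cell viability assay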
Result: < 4.80

Lab note: next molecule to report on.
Quickly give me recorded pIC50 for C[C@]1(c2nc3c(C(N)=O)cccc3[nH]2)CCCN1 [VELIPARIB]
< 5.30

====

Tested on: TE-6;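 note: growth inhibition of TE-6 cells, read out with a cell viability assay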
Protocol: cells
Format: functional, cell-based
Measurement context: Homo sapiens
Description: SANGER: Inhibition of human TE-6 cell growth in a cell viability assay.
compounds and their reported IC50
Note: unit µM is implicit; provide only the numeric part.

Query smiles: CC[C@]1(O)C[C@@H]2CN(CCc3c([nH]c4ccccc34)[C@@](C(=O)OC)(c3cc4c(cc3OC)N(C)[C@H]3[C@@](O)(C(=O)OC)[C@H](OC(C)=O)[C@]5(CC)C=CCN6CC[C@]43[C@@H]65)C2)C1
Unit: µM
IC50: 0.0565

Lab note: next compound to report on.
Quickly give me recorded IC50 for O=C(CCCCCCC(=O)Nc1ccccc1)NO
4.94

====

Test system: HEC-1
Protocol: cells
Format: functional, cell-based
Measurement context: Homo sapiens
Description: SANGER: Inhibition of human HEC-1 cell growth in a cell viability assay.
Property label: IC50

Some molecules with recorded IC50:
Molecule: CC(C)=CC[C@@H](O)C1=CC(=O)c2c(O)ccc(O)c2C1=O
Result: 1.13 µM

Molecule: NC(=O)c1ncn([C@@H]2O[C@H](COP(=O)(O)O)[C@@H](O)[C@H]2O)c1N
Result: > 2000 µM

Molecule: CC[C@]1(O)C[C@@H]2CN(CCc3c([nH]c4ccccc34)[C@@](C(=O)OC)(c3cc4c(cc3OC)N(C)[C@H]3[C@@](O)(C(=O)OC)[C@H](OC(C)=O)[C@]5(CC)C=CCN6CC[C@]43[C@@H]65)C2)C1
Result: 0.0114 µM

Molecule: CC(O)(CS(=O)(=O)c1ccc(F)cc1)C(=O)Nc1ccc(C#N)c(C(F)(F)F)c1 (stereo not drawn) [BICALUTAMIDE]
Result: > 1.02 µM

Molecule: N#C/C(=C1/Nc2ccccc2S1)c1ccnc(NCCc2cccnc2)n1
Result: > 8 µM

Quickly give me recorded IC50 for C/C(O)=C(\C#N)C(=O)Nc1cc(Br)ccc1Br
> 16 µM

Quickly give me recorded IC50 for CC(=O)c1c(C)c2cnc(Nc3ccc(N4CCNCC4)cn3)nc2n(C2CCCC2)c1=O
> 4 µM

Quickly give me recorded IC50 for O=c1[nH]c2ccccc2n1C1CCN(Cc2ccc(-c3nc4cc5[nH]cnc5cc4nc3-c3ccccc3)cc2)CC1
> 2.56 µM

====

System: CA46
Protocol: cells
Format: functional, cell-based
Measurement context: Homo sapiens
Description: SANGER: Inhibition of human CA46 cell growth in a cell viability assay.
pIC50: −log10 of the molar value.
compounds and their reported pIC50

Some compounds with recorded pIC50:
Compound: Cc1n[nH]c2ccc(-c3cncc(OC[C@@H](N)Cc4c[nH]c5ccccc45)c3)cc12 [A-443654]
Property label: pIC50
Result: < 5.99

Compound: CCNc1cc(N[C@H]2CC[C@@H](O)CC2)nc(Nc2ccc3c(ccn3Cc3ccccc3)c2)n1
Property label: pIC50
Result: < 5.29

Compound: C/C=C(/C)C(=O)O[C@H]1C(C)=C2[C@H]([C@@H]1OC(=O)CCCCCCC)[C@@](C)(OC(C)=O)C[C@H](OC(=O)CCC)[C@@]1(O)[C@H]2OC(=O)[C@@]1(C)O [THAPSIGARGIN]
Property label: pIC50
Result: 8.53

Lab note: next compound to report on.
Quickly give me recorded pIC50 for COc1cc(C)c(Sc2cnc(NC(=O)c3ccc(CNC(C)C(C)(C)C)cc3)s2)cc1C(=O)N1CCN(C(C)=O)CC1 (centres undefined)
< 4.99

====

System: SNU-5;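 note: cell viability readout used to measure growth inhibition in human NCI-SNU-5 cells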
Protocol: cells
Assay type: functional, cell-based
Measurement context: Homo sapiens
Description: SANGER: Inhibition of human NCI-SNU-5 cell growth in a cell viability assay.
molecules and their reported log10 of IC50
In plain terms, each number is the log10 of measured IC50 in nM.

Molecule: CCCS(=O)(=O)Nc1ccc(F)c(C(=O)c2c[nH]c3ncc(Cl)cc23)c1F [PLX-4720]
Readout number: 3.33

Molecule: Cn1c(=O)n(-c2ccc(C(C)(C)C#N)cc2)c2c3cc(-c4cnc5ccccc5c4)ccc3ncc21 [DACTOLISIB]
Readout number: 2.53

Molecule: Cc1[nH]c(/C=C2\C(=O)Nc3ccc(S(=O)(=O)Cc4c(Cl)cccc4Cl)cc32)c(C)c1C(=O)N1CCC[C@@H]1CN1CCCC1 [PHA-665752]
Readout number: 2.09

Quickly give me recorded log10 of IC50 for C/C=C(/C)C(=O)O[C@H]1C(C)=C2[C@H]([C@@H]1OC(=O)CCCCCCC)[C@@](C)(OC(C)=O)C[C@H](OC(=O)CCC)[C@@]1(O)[C@H]2OC(=O)[C@@]1(C)O [THAPSIGARGIN]
1.96

Quickly give me recorded log10 of IC50 for C[C@]1(c2nc3c(C(N)=O)cccc3[nH]2)CCCN1 [VELIPARIB]
3.50

====

Test system: SW 962
Protocol: cells
Type: functional, cell-based
Measurement context: Homo sapiens
Description: SANGER: Inhibition of human SW962 cell growth in a cell viability assay.
Property label: IC50

Some molecules with recorded IC50:
Molecule: C/C(O)=C(\C#N)C(=O)Nc1cc(Br)ccc1Br
IC50: > 16 µM
//
Molecule: NC(=O)c1ncn([C@@H]2O[C@H](COP(=O)(O)O)[C@@H](O)[C@H]2O)c1N
IC50: > 2000 µM
//
Molecule: CCn1c(-c2nonc2N)nc2cnc(Oc3cccc(NC(=O)c4ccc(OCCN5CCOCC5)cc4)c3)cc21 [GSK-269962A]
IC50: > 2.5 µM
//
Molecule: CCNC(=O)c1noc(-c2cc(C(C)C)c(O)cc2O)c1-c1ccc(CN2CCOCC2)cc1
IC50: 0.0285 µM
//
Molecule: COc1cc(Nc2c(C#N)cnc3cc(OCCCN4CCN(C)CC4)c(OC)cc23)c(Cl)cc1Cl
IC50: > 2 µM
//
Molecule: Cc1ccc(NC(=O)c2cccc(C(C)(C)C#N)c2)cc1Nc1ccc2ncn(C)c(=O)c2c1
IC50: > 4 µM
//
Molecule: CC(C)=CC[C@@H](O)C1=CC(=O)c2c(O)ccc(O)c2C1=O
IC50: 0.568 µM
//
Molecule: Cc1n[nH]c2ccc(-c3cncc(OC[C@@H](N)Cc4c[nH]c5ccccc45)c3)cc12
IC50: 0.255 µM

Lab note: next molecule to report on.
Recall the reported IC50 of Cc1[nH]c(/C=C2\C(=O)Nc3ccc(S(=O)(=O)Cc4c(Cl)cccc4Cl)cc32)c(C)c1C(=O)N1CCC[C@@H]1CN1CCCC1 when tested on SW 962.
> 2 µM

====

Tested on: ECC12
Protocol: cells
Assay type: functional, cell-based
Measurement context: Homo sapiens
Description: SANGER: Inhibition of human ECC12 cell growth in a cell viability assay.
Property label: pIC50
// pIC50 is dimensionless: -log10 of concentration (M)

Quickly give me recorded pIC50 for Fc1cc(-c2cc[nH]/c(=N/c3ccc(-n4cnc(N5CCOCC5)n4)cc3)n2)cc(N2CCOCC2)c1
6.49

====

compounds and their reported IC50
Test system: NCI-H1581
Protocol: cells
Assay type: functional, cell-based
Measurement context: Homo sapiens
Description: SANGER: Inhibition of human NCI-H1581 cell growth in a cell viability assay.

Query smiles: CNC(=O)c1ccccc1Sc1ccc2c(/C=C/c3ccccn3)n[nH]c2c1
Result: 1390 nM
//
Query smiles: Cn1cc(/C=C2\C(=O)Nc3cccnc32)c2ccccc21
Result: > 2000 nM
//
Query smiles: CC(C)=CC[C@@H](O)C1=CC(=O)c2c(O)ccc(O)c2C1=O
Result: > 16000 nM

Lab note: next compound to report on.
Recall the reported IC50 of CC(=O)c1c(C)c2cnc(Nc3ccc(N4CCNCC4)cn3)nc2n(C2CCCC2)c1=O when tested on NCI-H1581.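 Note: cell growth inhibition read out by a viability assay.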
> 4000 nM
